Procedure Summary: NCI Yeast Anticancer Drug Screen. Data for the sgs1 strain (AID 173);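 note: 0% = growth of vehicle-only control cultures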
Particulars: S. cerevisiae sgs1 mutant, at 11.0 µM, active compounds read high
This is part of a sample that, as a whole, favours compounds with a hit. Of some 79,000 tested, about 15% had one in any assay.
For each record, write down the corresponding growth inhibition.
Numeric answer only, unit % assumed.

# growth inhibition of Cc1cc2c3ccccc3c3ccccc3c2nn1 = 0

# growth inhibition of CCOC(=O)CC1(C(=O)OCC)c2[nH]c3ccccc3c2CCN1Cc1ccccc1 (stereo unspecified) = -5

# growth inhibition of COc1ccc(/C=C/C(=O)c2ccccc2)cc1OC = 5

# growth inhibition of Cc1ccc(S/C(=C\C(=O)O)c2ccccc2)cc1 = 12

# growth inhibition of Cc1cc(C(C)(C)CC(C)(C)C)ccc1O = 14

# growth inhibition of O=C(COC(=O)c1ccccc1)c1ccc(Br)cc1 = 90
